Reported apparent KD of MS2 coat protein is given for each of the following sequences.
# Test system: MS2 coat protein
# assay.details: apparent KD of MS2 coat protein, switch OFF state (with FMN for OFF switches, without FMN for ON switches); designed switch direction (-1 OFF switch, 1 ON switch): 1; higher = weaker reporter binding
# experimental.parameters: FMN input: 0 or 200 uM; Eterna round: R93 (includes R88 designs)
experimental.endpoint: apparent KD of MS2 coat protein (nM)

AAUAUACAUGAGGAUCACCCAUGUUUUGGUGGGUCAGGAUAUAAAAACAAUUACAUAAAGUUAGAAGGGACAAAUA [JR_SS001_Sub004] : 121
GAGAAGAAGAGAGAGGAUAUCCAAAGGAAAACAUGAGGAUCACCCAUGUAAAAGGUAGGAAAUUGGGAGAAGGCUCAAAGGAGGG [salish99-ss2-031] : 29.5
AAAAAACAUGAGGAUCACCCAUGUAAAAAAAUGGGAGGAUAUACAAAAACGAAAGUCAAAGUAGAAGGCCUGAAAA [same state 5] : 172
AGAAAUAAAUGAGAGGAUAUCCUAAAGAAAACAUGAGGAUCACCCAUGUAAAAGAAAAUAAAAUGGGAGAAGGCUCAUAAUAAAG [Starry Same State 2 (jandersonlee round 1 mod)] : 35.5
AAAUAAAUGACUAAGGAUAUAUUAGAGAAAACAUGAGGAUCACCCAUGUAAUAAUAAAAAGGGUGAUAGAAGGUAGUCAACAAAC [74%, More Paria 4] : 48.8
AAAAAACAUGAGGAUCACCCAUGUGAGAACAUGGGAGGAUAUACAAGGAUGAGAGUCAAGGUAGAAGGCCUAAGAA [Garnet 70] : 48.5
